# credit: patent US20150037328A1

Target: T1, human CXCR4-enriched lipoparticles (LEV101, Integral Molecular) (human, UniProt P61073 1-352)
T1 construct: Bought reagent; CXCR4 held in lipoparticles captured by biotinylated WGA on an SA chip; also called Lipoparticles containing CXCR4 proteins
T1 sequence (P61073 whole entry): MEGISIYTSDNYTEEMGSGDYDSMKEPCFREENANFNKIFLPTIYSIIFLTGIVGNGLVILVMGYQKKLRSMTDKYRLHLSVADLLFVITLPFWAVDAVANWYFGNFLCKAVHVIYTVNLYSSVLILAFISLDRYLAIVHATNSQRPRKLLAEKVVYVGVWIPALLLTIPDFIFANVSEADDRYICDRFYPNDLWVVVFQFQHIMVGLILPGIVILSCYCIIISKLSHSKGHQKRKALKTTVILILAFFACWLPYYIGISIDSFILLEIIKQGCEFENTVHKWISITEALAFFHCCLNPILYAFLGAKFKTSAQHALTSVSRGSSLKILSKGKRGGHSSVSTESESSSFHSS
Experimental Details: biosensor kinetic titration, Fab over captured human CXCR4 lipoparticles
Experimental: The binding affinity of each Fab was determined using human CXCR4-enriched lipoparticles (LEV101, Integral Molecular, Philadelphia Pa.). Biotinylated WGA (Sigma Aldrich, St. Louis Mo.)) can be coated on the SA chip to facilitate capturing lipoparticles containing CXCR4 proteins. […] J. Mol. Recognit.
The following binders are listed with their measured koff values.
Write it as a number; the unit s⁻¹ goes unstated.

{"Binder": "h3G10.1.91 VH / h3G10.2.72 VL Fab (Fab, V domains shown, Tested as Fab) VH: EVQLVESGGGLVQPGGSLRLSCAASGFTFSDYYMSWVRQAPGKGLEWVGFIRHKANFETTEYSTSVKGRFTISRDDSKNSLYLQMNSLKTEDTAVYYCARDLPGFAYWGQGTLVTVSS VL: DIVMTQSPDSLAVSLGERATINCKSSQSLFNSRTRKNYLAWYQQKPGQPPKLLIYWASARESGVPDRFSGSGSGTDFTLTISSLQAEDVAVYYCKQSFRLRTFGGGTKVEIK", "Measurement Unit": "s⁻¹", "koff": 0.00049}
{"Binder": "h3G10.A57 VH / h3G10.A58B VL Fab (Fab, V domains shown, Tested as Fab) VH: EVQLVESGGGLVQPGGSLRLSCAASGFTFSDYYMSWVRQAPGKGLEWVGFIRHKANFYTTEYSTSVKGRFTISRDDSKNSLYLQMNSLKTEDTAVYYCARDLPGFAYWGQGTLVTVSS VL: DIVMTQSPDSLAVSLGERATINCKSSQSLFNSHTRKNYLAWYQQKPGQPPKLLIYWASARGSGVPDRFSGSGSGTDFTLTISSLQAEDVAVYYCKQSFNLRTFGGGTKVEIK", "Measurement Unit": "s⁻¹", "koff": 0.000515}

--- query ---
[ask] Entry under review: h3G10.A57 VH / h3G10.A58A VL Fab (Fab, V domains shown, Tested as Fab) VH: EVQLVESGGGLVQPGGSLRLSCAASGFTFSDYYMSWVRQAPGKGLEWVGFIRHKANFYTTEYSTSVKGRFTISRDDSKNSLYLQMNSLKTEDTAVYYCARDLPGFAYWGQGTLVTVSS VL: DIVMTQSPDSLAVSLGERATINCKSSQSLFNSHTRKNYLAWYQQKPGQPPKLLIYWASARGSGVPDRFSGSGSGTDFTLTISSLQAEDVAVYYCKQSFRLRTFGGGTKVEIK . Reported koff?
[reply] 0.00063
